Every entry's value here was drawn from paper PMC6274122.

- System: Pseudomonas aeruginosa ATCC 15442
- MEASUREMENT PROTOCOL: Broth microdilution MIC/MBC (CLSI M07-A8), P. aeruginosa
- Format: cell-based
- DETAILS: P. aeruginosa ATCC 15442
Recorded MBC (minimum bactericidal concentration) for the following compounds
Write it as a number; the unit µM goes unstated.

COMPOUND	READOUT NUMBER
CCOP(=O)(OCC)OCc1nc2ccccc2[nH]1.CCOP(=O)(OCC)OCc1nc2ccccc2[nH]1.O=[N+]([O-])O.[Ag] [Complex 2, [Ag(2-bimOpe)2]NO3]	27
O=[N+]([O-])[O-].OCc1nc2ccccc2[nH]1.OCc1nc2ccccc2[nH]1.[Ag+] [Complex 5, [Ag(2-CH2OHbim)2]NO3]	21
O=[N+]([O-])[O-].OCc1cccc(CO)n1.OCc1cccc(CO)n1.[Ag+] [Complex 3, [Ag(2,6-di(CH2OH)py)2]NO3]	67
O=[N+]([O-])[O-].[Ag+] [AgNO3, silver nitrate, reference compound]	59

Next compound, please.
Lookup result for O=[N+]([O-])[O-].OCc1ccncc1.OCc1ccncc1.[Ag+] [Complex 4, [Ag(4-CH2OHpy)2]NO3] ; measured MBC (minimum bactericidal concentration): 52
